Here, each record is paired with measured inhibition data.
- Experimental Details: VP16 transactivation reporter inhibitors, counter-screen for LRH-1 inverse agonist project, cell-based, luminescence, high throughput (AID 651615)
- Conditions: Gal4-VP16 luciferase reporter cells, at 3.6 µM, active compounds read high
The source made the active and inactive calls. Rule as the data show it: active = inhibition above about 33%; inactive = the rest.

Given the compound "CCN(CC)C1=CC(=O)OC12CCCCC2" , what is its reported inhibition?
-9.57% (inactive)

Given the compound "Clc1ccc(C2=Nn3c(nnc3-c3n[nH]c4c3CCC4)SC2)cc1" , what is its reported inhibition?
-54.9% (inactive)

Given the compound "O=C(CCl)NCCN1C(=O)S/C(=C\c2cccnc2)C1=O" , what is its reported inhibition?
-3.37% (inactive)

Given the compound "COc1ccc(CCNC(=O)c2nnn(-c3ccc4c(c3)OCCO4)c2N)cc1OC" , what is its reported inhibition?
-16.9% (inactive)

---

- Assay System: Protein phosphatase methylesterase 1 (Homo sapiens)
- Experimental Details: PME-1 inhibitor activity retest, confirmation, biochemical, fluorescence polarization, FP-Rh probe, triplicate (AID 2171);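 also: 0% = enzyme with DMSO and 100% = wells lacking PME-1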
- Conditions: recombinant PME-1, FP-Rh probe fluorescence polarization; at 5.9 µM; active compounds read high
Is inhibition at least 20%? Then rule met. If not, rule not met.

Example results:
{"Compound": "Cc1ccc(NC(=O)c2ccc(Nc3c([N+](=O)[O-])cc([N+](=O)[O-])cc3[N+](=O)[O-])cc2)cc1", "Assigned Category": "rule met"}
{"Compound": "CN1CCN(c2ccc(NC(=O)c3ccc(-c4ccc(Br)cc4)o3)cc2)CC1", "Assigned Category": "rule met"}
{"Compound": "O=C1C(Cl)=C(Nc2ccc3cn[nH]c3c2)C(=O)c2ccccc21", "Assigned Category": "rule met"}

Is it the case that "Cc1onc(NC(=O)NC(=O)c2c(Cl)cccc2Cl)c1Br" has inhibition reaching or exceeding 20%?
rule not met

Is it the case that "Cc1cccc(NC(=O)CN2C(=O)S/C(=C\c3ccc(O)c([N+](=O)[O-])c3)C2=O)c1" has inhibition reaching or exceeding 20%?
rule met

Is it the case that CC(Sc1nnc(NC2CCCCC2)s1)C(=O)Nc1ccc2c(c1)C(=O)c1ccccc1C2=O (stereo not given) has inhibition reaching or exceeding 20%?
rule not met

Is it the case that "CN(C)S(=O)(=O)c1cccc(NC(=S)N/N=C/c2cc(Br)ccc2O)c1" has inhibition reaching or exceeding 20%?
rule not met

Is it the case that "COc1ccc(/C=C/c2c(-c3ccc(OC)cc3)oc3cccnc23)cc1" has inhibition reaching or exceeding 20%?
rule met

Is it the case that "COc1cc2cc3c(N)c(C(=O)NCc4ccco4)sc3nc2cc1OC" has inhibition reaching or exceeding 20%?
rule met

Is it the case that "Cc1cc(O)c(NC(=S)NC(=O)c2ccc(-c3ccc(Cl)cc3)o2)cc1C" has inhibition reaching or exceeding 20%?
rule met

Is it the case that CC1Oc2ccccc2C=C1/C=N/Nc1ccc(C(=O)O)cc1 (stereo not given) has inhibition reaching or exceeding 20%?
rule met

Is it the case that "O=S(=O)(c1ccc(-c2csc(Nc3ccc(Br)cc3)n2)cc1)N1CCCC1" has inhibition reaching or exceeding 20%?
rule not met

---

- Assay System: Nuclear receptor subfamily 5 group A member 2 (Homo sapiens) (UniProt O00482)
- Sequence (O00482 whole entry, looked up): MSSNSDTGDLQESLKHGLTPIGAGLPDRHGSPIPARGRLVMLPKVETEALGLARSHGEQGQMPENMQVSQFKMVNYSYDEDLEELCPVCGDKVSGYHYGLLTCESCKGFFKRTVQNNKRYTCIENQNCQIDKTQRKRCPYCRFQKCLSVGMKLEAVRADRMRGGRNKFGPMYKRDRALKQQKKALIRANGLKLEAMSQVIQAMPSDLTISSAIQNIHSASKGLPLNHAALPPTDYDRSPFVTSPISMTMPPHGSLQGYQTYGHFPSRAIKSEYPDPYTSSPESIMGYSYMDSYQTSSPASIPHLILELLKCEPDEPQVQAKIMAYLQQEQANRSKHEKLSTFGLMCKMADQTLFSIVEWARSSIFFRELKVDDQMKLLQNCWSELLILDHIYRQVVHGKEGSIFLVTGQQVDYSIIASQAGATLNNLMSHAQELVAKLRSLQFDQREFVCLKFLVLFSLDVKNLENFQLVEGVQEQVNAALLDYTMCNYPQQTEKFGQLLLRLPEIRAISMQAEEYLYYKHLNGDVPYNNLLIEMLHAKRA
- Experimental Details: LRH-1 (NR5A2) inverse agonists, retest, confirmation, cell-based, luminescence (AID 651613);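 also: HEK293T cells co-transfected with LRH-1 and StAR promoter luciferase reporter; 0% = vehicle wells and 100% = parental cells lacking receptor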
- Conditions: cell-based LRH-1 luciferase reporter, inverse agonism; at 3.6 µM; active compounds read high
Here, each record is paired with measured inhibition data.
Field format: number, assumed %, no unit text.

Consider the following illustrative entries.
{"Smiles Data": "Cc1onc(NC(=O)c2ccc([N+](=O)[O-])o2)c1Br", "Observed Result": 64.9}
{"Smiles Data": "Cc1ccc(CC(=O)Nc2ccncc2)cc1", "Observed Result": 64.3}
{"Smiles Data": "CCc1nc(SCC(=O)c2ccccc2)c2ccccc2n1", "Observed Result": 45.8}
{"Smiles Data": "CCN(CC)c1ccc(/C=C/c2ccc3ccc(OC)cc3[n+]2CC)cc1", "Observed Result": 96.4}

# next compound below
Given the compound "O=C(c1ccco1)N1CCN(C(=O)c2ccc(COc3ccc(Cl)cc3Cl)o2)CC1" , what is its reported inhibition?
49
